Cited source: the supplement of paper PMC10567573

B1: FAM107A (parent)
chain: LQRVLEHRRRNQLIKKKKEELEAK

# Variants of: B1
# test: protein stability index of a GFP-peptide fusion (GPS, HEK-293T) (PSI 1-6); higher = more stable;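 further: lentivirally expressed fusions sorted by FACS into six bins by GFP to DsRed ratio, PSI derived from sequencing read proportions per bin multiplied by bin number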
# condition-summary: c terminus: a fixed tail appended
Rule: 1 for protein stability index not less than 3, -1 for anything less.

A selection of reference data follows.
mutation-string	discrete-label
R9T	1
R8A	1
Q2D	1
K17V	1
K24A	1
R3A	1

Kindly determine if protein stability index recorded for R10V is above or exactly 3.
1

Kindly determine if protein stability index recorded for Q12W is above or exactly 3.
-1

Kindly determine if protein stability index recorded for R3Q is above or exactly 3.
1

Kindly determine if protein stability index recorded for I14F is above or exactly 3.
1

Kindly determine if protein stability index recorded for L5E is above or exactly 3.
1
